- System under test: GLP (Homo sapiens, UniProt Q9H9B1)
- Construct: 894-1298; purchased RBC (read as Reaction Biology Corporation, named)
- Sequence (Q9H9B1 894-1298): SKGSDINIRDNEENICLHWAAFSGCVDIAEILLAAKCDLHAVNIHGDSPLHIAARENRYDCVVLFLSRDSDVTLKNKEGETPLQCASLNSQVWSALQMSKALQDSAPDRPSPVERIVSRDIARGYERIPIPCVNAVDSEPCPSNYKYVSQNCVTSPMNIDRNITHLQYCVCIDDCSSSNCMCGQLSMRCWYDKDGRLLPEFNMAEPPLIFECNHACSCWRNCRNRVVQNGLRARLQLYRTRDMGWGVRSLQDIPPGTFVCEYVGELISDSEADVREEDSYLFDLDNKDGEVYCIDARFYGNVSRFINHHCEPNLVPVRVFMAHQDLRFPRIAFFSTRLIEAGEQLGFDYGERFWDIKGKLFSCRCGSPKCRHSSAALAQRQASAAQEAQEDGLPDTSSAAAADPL
- Protocol text: Histone methyltransferase enzymatic assay, GLP
- Type: biochemical
- Experimental: Histone methyltransferase assays were performed in 96-well half-area optiplates (PerkinElmer) at room temperature. All concentrations are final unless noted otherwise. Compounds were serially diluted in DMSO and the final DMSO concentration was 1%. […] The plate was sealed, mixed as previously noted, incubated overnight, and read on a TopCount plate reader (PerkinElmer). Data was analyzed using GraphPad Prism 6.0 (La Jolla, CA). […]
Outcome measure: IC50 (µM)
Numbers only, in µM.

Q: Determine its reported IC50: Nc1ncnc2c1ncn2[C@@H]1O[C@H](CSCC[C@H](N)C(=O)O)[C@@H](O)[C@H]1O [SAH, S-(5′-Adenosyl)-L-homocysteine, reference compound]
A: 2.2
